- Experiment Description: Plasma pharmacokinetics of Halofuginone hydrobromide in Beagle dogs (Example C)
- Measurement Context: male, Beagle, dog, in vivo, iv, 0.05 mg/kg, tmax
- Experimental: Blood samples were collected from the jugular, cephalic, or saphenous veins into tubes containing EDTA at the following time points: 0, 0.5, 1, 2, 4, 8, 12, 24, and 48 h postdose. Blood samples were kept on wet ice until processing. […] Statistical analysis of PK parameters for dogs treated with both enteric and oral solutions were calculated using Excel® spreadsheets. […] Paired differences for each dog were determined by subtracting the summary PK value as follows: […]
Counter-ions that a name gives are not always drawn.
Metric: Tmax (min)
Answers are plain numbers, in min.

-- ask Annotate the molecule O=C(C[C@@H]1NCCC[C@H]1O)Cn1cnc2cc(Br)c(Cl)cc2c1=O [Halofuginone hydrobromide] with its measured Tmax.
-- reply 4.8

====

- Experiment Description: Plasma pharmacokinetics of Halofuginone hydrobromide in Beagle dogs (Example C)
- Measurement Context: male, Beagle, dog, in vivo, iv, 0.05 mg/kg, Mean Conc. (plasma)
Counter-ions that a name gives are not always drawn.
Metric: concentration at 0.5 h (ng/mL)
Answers are plain numbers, in ng/mL.

-- ask Input O=C(C[C@@H]1NCCC[C@H]1O)Cn1cnc2cc(Br)c(Cl)cc2c1=O [Halofuginone hydrobromide] , output reported concentration at 0.5 h.
-- reply 4.47

====

- Experiment Description: Plasma pharmacokinetics of Halofuginone hydrobromide in Beagle dogs (Example C)
- Measurement Context: male, Beagle, dog, in vivo, po, 0.15 mg/kg, tmax
Where a name gives a salt, the structure may show the parent alone.
Metric: Tmax
The answer should read as a number with its unit following.

-- ask State its Tmax for this compound: O=C(C[C@@H]1NCCC[C@H]1O)Cn1cnc2cc(Br)c(Cl)cc2c1=O [Halofuginone hydrobromide]
-- reply 34.8 min

====

- Experiment Description: Plasma pharmacokinetics of Halofuginone hydrobromide in Beagle dogs (Example C)
- Measurement Context: male, Beagle, dog, in vivo, iv, 0.05 mg/kg, Mean Conc. (plasma)
Counter-ions that a name gives are not always drawn.
Metric: concentration at 24 h (ng/mL)
Answers are plain numbers, in ng/mL.

-- ask Return concentration at 24 h for the following compound: O=C(C[C@@H]1NCCC[C@H]1O)Cn1cnc2cc(Br)c(Cl)cc2c1=O [Halofuginone hydrobromide]
-- reply 0.67

====

- Experiment Description: Plasma pharmacokinetics of Halofuginone hydrobromide in Beagle dogs (Example C)
- Measurement Context: male, Beagle, dog, in vivo, iv, 0.05 mg/kg, Mean Conc. (plasma)
Counter-ions that a name gives are not always drawn.
Metric: concentration at 12 h (ng/mL)
Give bare numbers, in ng/mL.

-- ask Using the record for O=C(C[C@@H]1NCCC[C@H]1O)Cn1cnc2cc(Br)c(Cl)cc2c1=O [Halofuginone hydrobromide] , state its measured concentration at 12 h.
-- reply 0.76

====

- Experiment Description: Plasma pharmacokinetics of halofuginone in male beagle dogs (Example B)
- Type: in vivo
- Measurement Context: male, beagle, dog, in vivo, po, 0.15 mg/kg
Structures can show the parent of a compound that is named as a salt.
Metric: AUC(0-t) (ng·h/mL)
Give bare numbers, in ng·h/mL.

-- ask Find the measured AUC(0-t) of O=C(C[C@@H]1NCCC[C@H]1O)Cn1cnc2cc(Br)c(Cl)cc2c1=O [Halofuginone hydrobromide] and report it.
-- reply 39.5

====

- Experiment Description: Plasma pharmacokinetics of Halofuginone hydrobromide in Beagle dogs (Example C)
- Measurement Context: male, Beagle, dog, in vivo, iv, 0.05 mg/kg, Cmax
Counter-ions that a name gives are not always drawn.
Metric: Cmax
Record the result as number plus unit.

-- ask Tell me its Cmax given O=C(C[C@@H]1NCCC[C@H]1O)Cn1cnc2cc(Br)c(Cl)cc2c1=O [Halofuginone hydrobromide] as the entry.
-- reply 6.95 ng/mL

====

- Experiment Description: Plasma pharmacokinetics of Halofuginone hydrobromide in Beagle dogs (Example C)
- Measurement Context: male, Beagle, dog, in vivo, sc, 0.03 mg/kg, Cmax
Counter-ions that a name gives are not always drawn.
Metric: Cmax (ng/mL)
Numbers only, in ng/mL.

-- ask Supply Cmax value. Item: O=C(C[C@@H]1NCCC[C@H]1O)Cn1cnc2cc(Br)c(Cl)cc2c1=O [Halofuginone hydrobromide]
-- reply 3.66

====

- Experiment Description: Plasma pharmacokinetics of Halofuginone hydrobromide in Beagle dogs (Example C)
- Measurement Context: male, Beagle, dog, in vivo, sc, 0.03 mg/kg, Sample Conc. (plasma)
Structures can show the parent of a compound that is named as a salt.
Metric: concentration at 0.5 h (ng/mL)
Answers are plain numbers, in ng/mL.

-- ask // Input: O=C(C[C@@H]1NCCC[C@H]1O)Cn1cnc2cc(Br)c(Cl)cc2c1=O [Halofuginone hydrobromide] . Output its concentration at 0.5 h only.
-- reply 2.82
